Measured nuclei count, listed per entry for reference.
assay: reduction of polyQ htt aggregates in cells – imaging, exon1htt(103Q)mCFP cells, high-content imaging, primary screen (AID 483); conditions: exon1htt(103Q)mCFP cell line, aggregate imaging, at 2 µM; measured here: cell count, toxicity;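 further: compound exposure lasted 3 days before fixation; percent of the per-plate median nuclei count of sample wells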
Report as a plain number; the unit % is understood.

// worked examples, nuclei count included
{"Molecule": "O=C(Cc1cccs1)Nc1nnc(CCc2ccccc2)s1", "Numeric Readout": 110}
{"Molecule": "CC1(C)CC(=O)C2=C(C1)NC(=O)CC2C(=O)NCc1ccc(F)cc1 (stereo not given)", "Numeric Readout": 86.7}
{"Molecule": "Cc1cc(C)c(NC(=O)C2CSCCS2)c(C)c1 (stereo not given)", "Numeric Readout": 96}
{"Molecule": "CCOC(=O)c1ccc(NS(=O)(=O)c2ccc3c(c2)oc(=O)n3C)cc1", "Numeric Readout": 72.9}
{"Molecule": "CCCSc1nc(N)c(C#N)c(-c2ccc(C)cc2)c1C#N", "Numeric Readout": 104}
{"Molecule": "CNC(=O)CSc1nnc(-c2cc3c(C)nn(-c4ccccc4)c3s2)n1C", "Numeric Readout": 74.6}
{"Molecule": "CC(C)Cc1nnc(NS(=O)(=O)c2ccc(Cl)cc2)s1", "Numeric Readout": 112}
{"Molecule": "CCOC(=O)C(NC(=O)c1ccccc1)(Nc1cc(C)on1)C(F)(F)F (stereo not given)", "Numeric Readout": 101}

Request: Report nuclei count for `CN(C)c1ccc(C(=O)Nc2nnc(-c3ccc(Cl)cc3)o2)cc1` please.
Response: 109

Request: Report nuclei count for `Cc1cnc(C(=O)OCC(=O)Nc2ccc(Oc3ccccc3)cc2)cn1` please.
Response: 107

Request: Report nuclei count for `Cc1csc(SCc2nc3sc4c(c3c(=O)[nH]2)CCC4)n1` please.
Response: 116

Request: Report nuclei count for COc1ccccc1NC(=O)C1=C(C)Nc2nnnn2C1c1ccccc1OC (stereo not given) please.
Response: 90.1

Request: Report nuclei count for Cc1cc2nc(C3CCN(CC4COc5ccccc5O4)CC3)[nH]c2cc1C (stereo not given) please.
Response: 92

Request: Report nuclei count for `CC(C)(C)n1nnnc1CN1CCC(NC(=O)NC2CCCCC2)CC1` please.
Response: 93

Request: Report nuclei count for `CCOC(=O)c1cnc(C(C)(C)C)[nH]c1=O` please.
Response: 109

Request: Report nuclei count for `CCn1c(=O)cc(OCC(=O)Nc2nc(C)cs2)c2ccccc21` please.
Response: 90.4
